Overview of recorded % AUC to parental Ab for various binders
Molecular target: T1, human PVRIG-mFc protein (Acro, PVG-H5253) (human, UniProt Q6DKI7 41-171, limits assumed)
T1 construct: extracellular domain; Bought protein; also called PVRIG-ECD-mFc; not shown: mouse Fc tag of the bought protein
T1 sequence (looked up): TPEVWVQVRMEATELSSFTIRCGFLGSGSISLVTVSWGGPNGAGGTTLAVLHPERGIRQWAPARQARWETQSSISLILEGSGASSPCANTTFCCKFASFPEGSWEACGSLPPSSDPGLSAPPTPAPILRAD
Assay: FACS blocking of PVRIG-mFc binding to CHO-K1-CD112 cells; competitor CD112
Give the value in % but do not write % after it.

• PVRIG-A105-H4 (Fc fusion, VHH-human IgG1 Fc format is stated for the parental VHH antibodies; not restated for the humanized variants; also called A105.VH4; not shown: human IgG1 hinge-CH2-CH3 (Fc)) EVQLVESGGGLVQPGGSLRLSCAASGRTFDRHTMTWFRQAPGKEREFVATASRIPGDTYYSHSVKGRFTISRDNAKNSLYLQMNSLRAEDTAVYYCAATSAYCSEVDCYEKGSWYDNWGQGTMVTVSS = 98.4

Q) Consider the binder shown here: PVRIG-A118-H4 (Fc fusion, VHH-human IgG1 Fc format is stated for the parental VHH antibodies; not restated for the humanized variants; also called A118.VH4; not shown: human IgG1 hinge-CH2-CH3 (Fc)) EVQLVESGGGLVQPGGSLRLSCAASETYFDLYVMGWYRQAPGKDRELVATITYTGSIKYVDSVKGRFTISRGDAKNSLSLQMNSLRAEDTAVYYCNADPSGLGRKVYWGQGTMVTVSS What is its recorded % AUC to parental Ab?
A) 97.9
